- methodDescription: NCI Yeast Anticancer Drug Screen. Data for the sgs1 strain (AID 173)
- experimentalParameters: S. cerevisiae sgs1 mutant, at 11.0 µM
The panel holds about 79,000 compounds, 15% with a hit somewhere; the sample as a whole holds those more often. The source made the active and inactive calls. Cut-off read from the data, not from the text of the source: active = growth inhibition above about 70%; inactive = the rest.
I would appreciate it if you answered using one of these outcomes: TRUE = active, FALSE = inactive

Example entries and their recorded answers appear below.
>  <compound>
CC(=O)/C=C/c1cc([N+](=O)[O-])ccc1O

>  <classAssignment>
FALSE

$$$$
>  <compound>
CC(C)N(CCCNc1c2ccccc2nc2cccc([N+](=O)[O-])c12)C(C)C

>  <classAssignment>
TRUE

$$$$
>  <compound>
O=S(=O)(NC1CCCC(c2ccccc2)C1)c1ccccc1 (stereo unspecified)

>  <classAssignment>
FALSE

$$$$

Returns: the outcome recorded for CC(=O)N1C=Cc2c(c(C)c3c([nH]c4ccccc43)c2C)C1 in this assay.
TRUE

Next up: CCCCCCCCCCCCCCCCCCNC(=S)/N=C/c1c(O)c2ccccc2[nH]c1=O
FALSE

Also, CC1=CN2C(c3ccccc3)=NON(c3ccc(C)cn3)C2C=C1 (stereo unspecified) please.
FALSE

Then COc1ccccc1/C=C\C(=O)C1COCN1 (stereo unspecified) ?
FALSE

What do we get for CN1CCN(C(=O)c2cccc3cccc(C(=O)O)c23)CC1 ?
FALSE

Field entry: NC(CCCCCCCCCCCCC(N)C(=O)c1ccccc1)C(=O)c1ccccc1 (stereo unspecified)
TRUE

Cool, now OC1(C#CI)CCCCC1
TRUE

Input O=C(O)c1cc2c(cc1S(=O)(=O)O)C1C(C3C2C2(Cl)C(Cl)=C(Cl)C3(Cl)C2(Cl)Cl)C2(Cl)C(Cl)=C(Cl)C1(Cl)C2(Cl)Cl (stereo unspecified)
FALSE
